These entries and their values trace back to paper PMC5715404.

pIC50 by entry:
target: EGFR L858R/T790M (Homo sapiens, UniProt P00533, L858R/T790M)
Construct: Kinases domain of EGFR WT and EGFR L858R/T790M were expressed
Sequence (P00533 712-979 T790M/L858R limits assumed): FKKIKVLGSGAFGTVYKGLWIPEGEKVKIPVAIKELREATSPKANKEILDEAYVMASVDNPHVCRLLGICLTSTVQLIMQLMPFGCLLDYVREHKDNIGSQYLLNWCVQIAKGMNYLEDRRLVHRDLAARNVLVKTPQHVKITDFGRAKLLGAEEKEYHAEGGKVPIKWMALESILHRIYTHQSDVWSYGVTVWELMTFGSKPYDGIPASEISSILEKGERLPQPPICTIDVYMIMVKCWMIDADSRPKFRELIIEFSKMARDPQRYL
measurement_description: ELISA-based EGFR-TK kinase assay, EGFR L858R/T790M
measurement_conditions: ELISA, 10 μmol/L ATP solution, 37°C 1 h; mean ± SD of at least two determinations; read-out: EGFR tyrosine kinase IC50, EGFR T790M/L858R
pIC50: −log10 of the molar value.
readout_kind: pIC50

C=CC(=O)NC1O[C@H](COc2nc(Nc3ccc(N4CCN(C)CC4)cc3OC)ncc2Cl)[C@@H](O)[C@H]1O (stereo partly shown) [Compound 1c]	< 5.00
COc1cc(N2CCN(C)CC2)ccc1Nc1ncc(Cl)c(O[C@H]2[C@@H](O[Si](C)(C)C(C)(C)C)[C@H](N=[N+]=[N-])O[C@@H]2CO)n1 [Compound 25]	< 5.00
COc1cc(N2CCN(C)CC2)ccc1Nc1ncc(Cl)c(OC[C@H]2OC(O)[C@H](O)[C@@H]2O)n1 (stereo partly shown) [Compound 26]	< 5.00
C=CC(=O)N[C@H]1[C@H]2OC(C)(C)O[C@H]2O[C@@H]1COc1nc(Nc2ccc(N3CCN(C)CC3)cc2OC)ncc1Cl [Compound 1a]	6.21
COc1cc(N2CCN(C)CC2)ccc1Nc1ncc(Cl)c(OC[C@H]2O[C@@H](N=[N+]=[N-])[C@H](O)[C@@H]2O)n1 [Compound 24]	< 5.00
C=CC(=O)N[C@H]1O[C@H](CO)[C@@H](Oc2nc(Nc3ccc(N4CCN(C)CC4)cc3OC)ncc2Cl)[C@H]1O[Si](C)(C)C(C)(C)C [Compound 1d]	< 5.00
C=CC(=O)N[C@@H]1[C@@H](COc2nc(Nc3ccc(N4CCN(C)CC4)cc3OC)ncc2Cl)OC(O)[C@@H]1O (stereo partly shown) [Compound 1b]	5.58
